- experiment_notes: chemical genetic growth profiling, strain panel (AID 1159580);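 note: tested at 20 µM; growth read once vehicle control cultures reached saturation at 30 °C; 1 = growth at the plate median or of vehicle wells; lower values mean less growth of the strain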
- protocol_conditions: S. cerevisiae deletion strains, growth OD, locus YJL115W, strain asf1
About 2,000 (36%) of roughly 5,500 compounds were called active. Roughly 18% stayed inconclusive and do not appear here. Cut-off read from the data, not from the text of the source: active = normalized growth mostly below about 0.91 (no sharp cut-off); inconclusive = no clear call, values can overlap the other calls; inactive = mostly above about 0.92. The list shows a part of the results.
// allowed return values: class 1 (active), class 0 (inactive)

Here are 3 molecules together with their reported answers.
molecule	classification
C=C(C)C1Cc2c(ccc3c(=O)c4c(oc23)COc2cc(OC)c(OC)cc2-4)O1 (stereo not drawn)	class 0
Cc1cc(O)c2c(c1)C(=O)c1cccc(O)c1C2=O	class 0
CC1(C)CC23C(=O)CCC(O)C2(C)CCC13 (stereo not drawn)	class 0

# lookup: test call for COc1cc(Cc2cnc(N)nc2N)cc(OC)c1OC
class 0

Which outcome was assigned to CC(=O)NC1C(O)OC(COS(=O)(=O)O)C(OC2OC(C(=O)O)C(OC3OC(CO)C(OC4OC(C(=O)O)C(O)C(O)C4OS(=O)(=O)O)C(OS(=O)(=O)O)C3NS(=O)(=O)O)C(O)C2OS(=O)(=O)O)C1O (stereo not drawn) in this test?
class 0

Returns: the outcome recorded for O=C1c2cccc(O)c2C(=O)c2c(O)cccc21 in this assay.
class 1
